Reported solubility kinetic values are given for each entry in this list.
- COND: buffer; pH 7.4; 200.0 µM

Worked examples follow.
Identify the reported solubility kinetic for the following entry. "CC(C)NC(=O)CC1(C(=O)NCc2ccc(Cl)cc2)CCCC1"
> 50.5 µg/mL

Tell me measured solubility kinetic for "COc1ccc2[nH]c(C(=O)N(Cc3ccccn3)Cc3ccccn3)cc2c1" please.
> 55.9 µg/mL

Report measured solubility kinetic; entry is "Nc1nc2ccccc2[nH]1"
> 20 µg/mL

Continuing:
Identify measured solubility kinetic associated with CC1CCCC(NCC(=O)Nc2ccc(C(N)=O)cc2)C1C (stereo not drawn)
> 45.5 µg/mL

Entry O=C(O)CCC(CNS(=O)(=O)c1ccccc1)C(F)(F)F (stereo not drawn) needs its solubility kinetic filled in; supply it.
> 48.8 µg/mL

Identify the reported solubility kinetic for the following entry. "COc1ccc(C(=O)OCC(=O)Nc2c(C)n(C)n(-c3ccccc3)c2=O)cc1"
> 59.3 µg/mL

Look up and state reported solubility kinetic for "CCOC(=O)CNC(=O)Cc1ccc(OC)cc1"
> 37.7 µg/mL

Dear colleague, please send me the reported solubility kinetic for "CCOC(=O)C1=C(C)NC(C)=C(C(=O)OCC)C1C(=O)OCC(=O)NC1CCCCC1" when you can.
> 65.5 µg/mL

Specify measured solubility kinetic for "Cc1cc(C)c(S(=O)(=O)N2CCc3ccccc32)c(C)c1" .
< 0.6 µg/mL

Cited source: PubChem BioAssay AID1996
